Method Description: in vivo
Condition Info: male, Merino, sheep, in vivo, Betamethasone plasma concentration, Mean
Metric Name: concentration at 24 h (ng/mL)
Kindly provide the numeric value in ng/mL only, without the unit symbol.

Exercise: So what does the record say about concentration at 24 h for `C[C@H]1C[C@H]2[C@@H]3CCC4=CC(=O)C=C[C@]4(C)[C@@]3(F)[C@@H](O)C[C@]2(C)[C@@]1(O)C(=O)CO` ?
Solution: 0.964

====

Method Description: in vivo
Condition Info: male, Merino, sheep, in vivo, Betamethasone plasma concentration, Mean
Experimental: The control article was 0.9% saline. Blood was collected (via a jugular vein cannula inserted during surgery) during the 10-day post-dose phase for pharmacokinetics, hematology, clinical chemistry, glucose, and morning cortisol analysis. Because of the variability in the volume of the sinus in sheep, the total volume varied from 5 to 15 mL. Doses calculated by body weight and body surface area (BSA) are also shown.
Metric Name: concentration at 1 h (ng/mL)
Kindly provide the numeric value in ng/mL only, without the unit symbol.

Exercise: So what does the record say about concentration at 1 h for `C[C@H]1C[C@H]2[C@@H]3CCC4=CC(=O)C=C[C@]4(C)[C@@]3(F)[C@@H](O)C[C@]2(C)[C@@]1(O)C(=O)CO` ?
Solution: 0.307

====

Method Description: in vivo
Condition Info: male, Merino, sheep, in vivo, Individual betamethasone plasma concentrations
Metric Name: concentration at 0 h (ng/mL)
Kindly provide the numeric value in ng/mL only, without the unit symbol.

Exercise: So what does the record say about concentration at 0 h for `C[C@H]1C[C@H]2[C@@H]3CCC4=CC(=O)C=C[C@]4(C)[C@@]3(F)[C@@H](O)C[C@]2(C)[C@@]1(O)C(=O)CO` ?
Solution: 0

====

Method Description: in vivo
Condition Info: male, Merino, sheep, in vivo, Betamethasone plasma concentration, Mean
Method: The control article was 0.9% saline. Blood was collected (via a jugular vein cannula inserted during surgery) during the 10-day post-dose phase for pharmacokinetics, hematology, clinical chemistry, glucose, and morning cortisol analysis. Because of the variability in the volume of the sinus in sheep, the total volume varied from 5 to 15 mL. Doses calculated by body weight and body surface area (BSA) are also shown.
Metric Name: concentration at 0 h (ng/mL)
Kindly provide the numeric value in ng/mL only, without the unit symbol.

Exercise: So what does the record say about concentration at 0 h for C[C@H]1C[C@H]2[C@@H]3CCC4=CC(=O)C=C[C@]4(C)[C@@]3(F)[C@@H](O)C[C@]2(C)[C@@]1(O)C(=O)CO [Betamethasone, betamethasone] ?
Solution: 0

====

Method Description: in vivo
Condition Info: male, Merino, sheep, in vivo, Betamethasone plasma concentration, Mean
Metric Name: concentration at 2 h (ng/mL)
Kindly provide the numeric value in ng/mL only, without the unit symbol.

Exercise: So what does the record say about concentration at 2 h for C[C@H]1C[C@H]2[C@@H]3CCC4=CC(=O)C=C[C@]4(C)[C@@]3(F)[C@@H](O)C[C@]2(C)[C@@]1(O)C(=O)CO [Betamethasone, betamethasone] ?
Solution: 0.518

====

Method Description: in vivo
Condition Info: male, Merino, sheep, in vivo
Experimental: The control article was 0.9% saline. Blood was collected (via a jugular vein cannula inserted during surgery) during the 10-day post-dose phase for pharmacokinetics, hematology, clinical chemistry, glucose, and morning cortisol analysis. Because of the variability in the volume of the sinus in sheep, the total volume varied from 5 to 15 mL. Doses calculated by body weight and body surface area (BSA) are also shown.
Metric Name: Tmax (h)
Kindly provide the numeric value in h only, without the unit symbol.

Exercise: So what does the record say about Tmax for `C[C@H]1C[C@H]2[C@@H]3CCC4=CC(=O)C=C[C@]4(C)[C@@]3(F)[C@@H](O)C[C@]2(C)[C@@]1(O)C(=O)CO` ?
Solution: 24
